Measured values drawn from ChEMBL document CHEMBL5376022 for this set.

# Experimental Protocol: MRT in BALB/c mouse at 5 mg/kg, po measured for 0.83 to 24 hrs by LC-MS/MS analysis
# Type: ADME, organism-based
# Experimental Parameters: in vivo, time 0.83-24 hrs
Reported Property: MRT (h)
Answers are plain numbers, in h.

Exam item: So what does the record say about MRT for CCCCCC(=O)Nc1nc(-c2ccc(Br)cc2)c(Br)c(-c2cc(OC)c(OC)cc2OC)n1 ?
Marked response: 18.1

---

# Experimental Protocol: Tmax in BALB/c mouse at 5 mg/kg, po measured for 0.83 to 24 hrs by LC-MS/MS analysis
# Format: ADME, organism-based
# Experimental Parameters: in vivo, time 0.83-24 hrs
Reported Property: Tmax (min)
One number for each entry, in min.

Exam item: So what does the record say about Tmax for CCCCCC(=O)Nc1nc(-c2ccc(Br)cc2)c(Br)c(-c2cc(OC)c(OC)cc2OC)n1 ?
Marked response: 49.8

---

# Experimental Protocol: Stability in SPF assessed as compound remaining measured upto 6 hrs by RP-UHPLC analysis
# Type: physicochemical
# Experimental Parameters: read-out: Stability
Reported Property: remaining at 6 h

Exam item: So what does the record say about remaining at 6 h for CCCCCC(=O)Nc1nc(-c2ccc(Br)cc2)c(Br)c(-c2cc(OC)c(OC)cc2OC)n1 ?
Marked response: > 85%

---

# Experimental Protocol: Stability in BALB/c mouse plasma assessed as compound remaining measured upto 6 hrs by RP-UHPLC analysis
# Format: ADME, cell-free
# Experimental Parameters: read-out: Stability
Reported Property: remaining at 6 h

Exam item: So what does the record say about remaining at 6 h for CCCCCC(=O)Nc1nc(-c2ccc(Br)cc2)c(Br)c(-c2cc(OC)c(OC)cc2OC)n1 ?
Marked response: > 85%

---

Field: Activity. Provide a value for each of the molecules that follow.
# Test system: Calvarial osteoblast
# Experimental Protocol: Induction of cell proliferation of BALB/c mouse calvarial osteoblast cells at 0.1 nM incubated for 48 hrs by MTT assay relative to control
# Type: functional, Calvaria

Worked cases, answers included:
- Smiles Str: "CCCCCC(=O)Nc1nc(-c2ccc(Br)cc2)c(Br)c(-c2cc(OC)c(OC)cc2OC)n1"
  Study Target: "Calvarial osteoblast"
  Activity: "~31%"
- Smiles Str: "COc1cc(OC)c(-c2nc(N)nc(-c3ccc(Cl)cc3)c2Cl)cc1OC"
  Study Target: "Calvarial osteoblast"
  Activity: "~29%"
- Smiles Str: "COc1cc(OC)c(-c2cc(-c3ccc(Br)cc3)nc(N)n2)cc1OC"
  Study Target: "Calvarial osteoblast"
  Activity: "~30%"

Now look at this one.
Exam item: Give the reported Activity for CCCCCC(=O)Nc1nc(-c2ccc(Br)cc2)cc(-c2cc(OC)c(OC)cc2OC)n1 (system: Calvarial osteoblast).
Marked response: ~25%

---

# Experimental Protocol: Induction of osteogenesis in BALB/c mouse MSC cells assessed as increase in mineral nodule formation at 0.1 nM treated for 21 days with compound refreshment for every 48 hrs by Alizarin red S staining based analysis relative to control
# Format: functional
# Experimental Parameters: time 21 day
Field: Activity. Provide a value for each of the molecules that follow.

Worked cases, answers included:
- Smiles Str: "COc1cc(OC)c(-c2cc(-c3ccc(Br)cc3)nc(N)n2)cc1OC"
  Activity: "~23%"
- Smiles Str: "CCCCCC(=O)Nc1nc(-c2ccc(Br)cc2)cc(-c2cc(OC)c(OC)cc2OC)n1"
  Activity: "~25%"
- Smiles Str: "CCCCCC(=O)Nc1nc(-c2ccc(Cl)cc2)c(Cl)c(-c2cc(OC)c(OC)cc2OC)n1"
  Activity: "~27%"
- Smiles Str: "CCCCCC(=O)Nc1nc(-c2ccc(Br)cc2)c(Br)c(-c2cc(OC)c(OC)cc2OC)n1"
  Activity: "~39%"

Exam item: So what does the record say about Activity for COc1cc(OC)c(-c2nc(N)nc(-c3ccc(Cl)cc3)c2Cl)cc1OC ?
Marked response: ~26%

---

# Test system: Calvarial osteoblast
# Experimental Protocol: Cytotoxicity in BALB/c mouse calvarial osteoblast cells at 0.001 to 1000 nM incubated for 48 hrs by MTT assay
# Format: toxicity, cell-based, Calvaria
# Experimental Parameters: 1 µM, dose 0.001-1000 nM
Reported Property: Activity

Worked cases, answers included:
- Smiles Str: "COc1cc(OC)c(-c2cc(-c3ccc(Cl)cc3)nc(N)n2)cc1OC"
  Activity: "Non-Toxic"
- Smiles Str: "COc1cc(OC)c(-c2nc(N)nc(-c3ccc(Cl)cc3)c2Cl)cc1OC"
  Activity: "Non-Toxic"
- Smiles Str: "CCCCCC(=O)Nc1nc(-c2ccc(Cl)cc2)c(Cl)c(-c2cc(OC)c(OC)cc2OC)n1"
  Activity: "Non-Toxic"
- Smiles Str: "CCCCCC(=O)Nc1nc(-c2ccc(Br)cc2)cc(-c2cc(OC)c(OC)cc2OC)n1"
  Activity: "Non-Toxic"

I would be grateful if you could provide Activity for each of the following entries.
1. COc1cc(OC)c(-c2cc(-c3ccc(Br)cc3)nc(N)n2)cc1OC
2. CCCCCC(=O)Nc1nc(-c2ccc(Br)cc2)c(Br)c(-c2cc(OC)c(OC)cc2OC)n1

Marked response:
["Non-Toxic", "Non-Toxic"]

---

# Experimental Protocol: Stability in SIF assessed as compound remaining measured upto 6 hrs by RP-UHPLC analysis
# Type: ADME
# Experimental Parameters: simulated intestinal fluid (SIF), read-out: Stability
Reported Property: remaining at 6 h

Exam item: So what does the record say about remaining at 6 h for CCCCCC(=O)Nc1nc(-c2ccc(Br)cc2)c(Br)c(-c2cc(OC)c(OC)cc2OC)n1 ?
Marked response: > 50%

---

# Experimental Protocol: Stability in SGF assessed as compound remaining measured upto 6 hrs by RP-UHPLC analysis
# Type: ADME
# Experimental Parameters: simulated gastric fluid (SGF), read-out: Stability
Reported Property: remaining at 6 h

Exam item: So what does the record say about remaining at 6 h for CCCCCC(=O)Nc1nc(-c2ccc(Br)cc2)c(Br)c(-c2cc(OC)c(OC)cc2OC)n1 ?
Marked response: > 50%
